Source of measurements: ChEMBL document CHEMBL1961873

- system.name: Epidermal growth factor receptor (Homo sapiens)
- condition.info: at 0.1 µM
- Description: GSK_PKIS: EGFR mean inhibition at 0.1 uM [Nanosyn]
Listed next: entries and their corresponding inhibition.
Respond with the figure and its unit, in that order.

Reference set, count: 6
compound	inhibition
CCCN1CCC=C(c2ccc(Nc3nc(Nc4ccccc4C(N)=O)c4cc[nH]c4n3)c(C)c2)C1	3.3%
NS(=O)(=O)c1cccc(-c2ccc3c(NC(=O)C4CC4)n[nH]c3c2)c1	0.04%
[O-][S+]1CCN(Cc2ccc(-c3ccc4ncnc(Nc5ccc(OCc6ccccc6)c(F)c5)c4c3)o2)CC1	84.1%
COC(=O)Nc1nc2cc(Oc3cccc(NC(=O)Nc4cc(C(F)(F)F)ccc4F)c3)ccc2[nH]1	0.87%
Cc1cccc(-c2n[nH]cc2-c2ccc3ncccc3n2)n1	-0.16%
Fc1cccc(COc2ccc(Nc3ncnc4cc(-c5ccc[nH]5)sc34)cc2Cl)c1	66.2%

Continue with the compound presented below.
Request: Item CC1=C(C(=O)Nc2ccc3[nH]ncc3c2)C(c2ccc3ccccc3c2)CC(=O)N1 (configuration not stated) with Epidermal growth factor receptor (Homo sapiens) - inhibition?
Result: 1.29%

---

- system.name: G protein-coupled receptor kinase 6 (Homo sapiens);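 note: values are averaged percent inhibition of GRK6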
- condition.info: at 1 µM
quantity.name: inhibition (%)
Please state the figure in %; there is no need to write the unit.

O=C1NC(=O)C(c2ccccc2Cl)=C1Nc1cccc(O)c1 2.13

Request: For the molecule Cc1ccc(C(=O)NC2CCCCC2)cc1-c1ccc(C(=O)NCC2CC2)cc1 , what inhibition is on record?
Result: -3.25

---

Listed next: entries and their corresponding inhibition.
- system.name: Interleukin-1 receptor-associated kinase 4 (Homo sapiens);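 note: mean inhibition values, from the GSK PKIS dataset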
- condition.info: at 1 µM
Please state the figure in %; there is no need to write the unit.

Reference set, count: 5
compound	val
Cc1ccc(NC(=O)c2ccnc(N3CCCC3)c2)cc1-c1ccc(C(=O)NCC2CC2)cc1	2.34
COc1cc2ncn(-c3cc(O[C@H](C)c4ccccc4Cl)c(C(N)=O)s3)c2cc1OC	3.82
CCn1c(-c2nonc2N)nc2cncc(C(=O)N3CCNCC3)c21	3.54
COc1cc(C)c(NC(=O)CN(C)C)cc1Nc1nc(Nc2cccc(F)c2C(N)=O)c2cc[nH]c2n1	2
CC1=C(C(=O)Nc2ccc3[nH]ncc3c2)C(c2ccc(F)cc2)NC(=O)N1 (centres undefined)	0.77

Continue with the compound presented below.
Request: For the compound COc1cc2c(cc1Nc1nc(N3CCc4ccccc43)c3cc[nH]c3n1)N(C(=O)CN(C)C)CC2 , what inhibition is on record?
Result: 0.98

---

- System: Tyrosine-protein kinase ABL1 (Homo sapiens), P00519 [Q252H]
- condition.info: at 1 µM
Listed next: entries and their corresponding inhibition.
Please state the figure in %; there is no need to write the unit.

COC(=O)Nc1nc2cc(Oc3ccc(NC(=O)Nc4cccc(C(=O)O)c4)cc3)ccc2[nH]1 14.4
COc1ccc(COc2ccc(Cc3cnc(N)nc3N)cc2OC)cc1 -0.16
O=C1Nc2ccc(C(=O)c3ccco3)cc2C1=Cc1cc(Cl)c(O)c(Cl)c1 17.7
COc1ccc(-c2coc3ncnc(N)c23)cc1 9.48
NS(=O)(=O)c1cccc(-c2ccc3c(NC(=O)C4CC4)n[nH]c3c2)c1 9.03
CCn1c(-c2nonc2N)nc2cncc(C(=O)N3CCNCC3)c21 4.95
CC(=O)Nc1cccc(C#Cc2cncnc2Nc2ccc(OCc3cccc(F)c3)c(Cl)c2)n1 3.02
Cc1ccc(NC(=O)c2ccnc(N3CCCC3)c2)cc1-c1ccc(C(=O)NCC2CC2)cc1 12.4

Request: For the compound N#Cc1c(NC(=O)c2cccc3ccccc23)sc2c1CCCC2 , what inhibition is on record?
Result: 3.18

Request: Moving on to CS(=O)(=O)CCNCc1ccc(-c2ccc3ncnc(Nc4ccc(OCc5ccccc5)c(Cl)c4)c3c2)o1
Result: 3.15
